- Experimental target: Xaa-Pro dipeptidase (Homo sapiens, UniProt P12955)
- Sequence (P12955 whole entry): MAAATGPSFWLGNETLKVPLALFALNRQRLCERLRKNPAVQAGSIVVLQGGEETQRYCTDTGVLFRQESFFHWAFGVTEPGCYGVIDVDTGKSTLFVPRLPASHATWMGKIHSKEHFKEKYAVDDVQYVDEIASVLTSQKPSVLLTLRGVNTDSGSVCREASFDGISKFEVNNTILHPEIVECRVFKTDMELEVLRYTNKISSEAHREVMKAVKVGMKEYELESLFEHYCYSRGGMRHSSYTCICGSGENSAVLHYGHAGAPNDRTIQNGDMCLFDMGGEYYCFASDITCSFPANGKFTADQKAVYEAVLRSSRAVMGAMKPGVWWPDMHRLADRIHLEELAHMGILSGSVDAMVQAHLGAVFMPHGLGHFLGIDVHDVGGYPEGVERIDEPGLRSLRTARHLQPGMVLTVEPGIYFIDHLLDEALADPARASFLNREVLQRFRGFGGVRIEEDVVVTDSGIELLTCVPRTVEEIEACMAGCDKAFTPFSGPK
- Test description: Competitive inhibition of prolidase (unknown origin) in erythrocytes assessed as inhibition constant
Readout name: pKi
In plain terms, pKi is the concentration in mol/L turned into minus its base-10 logarithm.

Fill in: pKi of NC(=O)Nc1ccc(O)cc1 is ___
5.01

---

- Tested on: MCF7
- Test description: Cytotoxicity against human MCF7 cells assessed as reduction in cell viability measured for 72 hrs by MTT assay
- Test context: MCF7, 72 h
Readout name: pIC50
In plain terms, pIC50 is the concentration in mol/L turned into minus its base-10 logarithm.

Fill in: pIC50 of O=NN(CCCl)C(=O)N1CCC[C@H]1C(=O)O is ___
3.99
